These entries and their values trace back to patent US20250154198A1.

Each item that follows carries a reported pKi.
Target: T1, Nluc-IL23R fusion protein (human, UniProt Q5VWK5 22-629)
T1 construct: range 22-629; Stably expressed in HEK293 cells; also called hIL-23R; human IL-23R fused to a Nanoluc luciferase enzyme; not shown: Nanoluc luciferase (Promega N1371 plasmid) at the N-terminus
T1 sequence (looked up): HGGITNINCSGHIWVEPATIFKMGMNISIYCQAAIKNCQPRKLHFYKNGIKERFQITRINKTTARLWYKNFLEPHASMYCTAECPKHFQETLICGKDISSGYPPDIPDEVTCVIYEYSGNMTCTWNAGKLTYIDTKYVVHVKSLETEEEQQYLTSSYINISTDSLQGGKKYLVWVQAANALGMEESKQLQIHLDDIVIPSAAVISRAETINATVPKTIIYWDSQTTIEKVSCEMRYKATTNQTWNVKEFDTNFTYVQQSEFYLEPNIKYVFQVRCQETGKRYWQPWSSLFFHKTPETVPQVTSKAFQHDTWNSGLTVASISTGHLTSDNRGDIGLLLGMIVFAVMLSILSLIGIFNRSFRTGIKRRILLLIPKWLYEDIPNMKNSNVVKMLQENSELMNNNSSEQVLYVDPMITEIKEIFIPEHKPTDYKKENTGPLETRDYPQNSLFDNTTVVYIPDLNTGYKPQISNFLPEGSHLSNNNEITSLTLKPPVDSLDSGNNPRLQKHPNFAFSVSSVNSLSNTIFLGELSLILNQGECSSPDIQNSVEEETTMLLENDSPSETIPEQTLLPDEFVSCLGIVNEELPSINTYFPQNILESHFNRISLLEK
Test: BRET displacement of TAMRA-labelled peptide, Nluc-IL23R membranes
*1 amine or outer side, *2 acyl side, *3 side chain or, on linkers, in order; H or OH if unused. Bridges are numbered along the chain shown (N, C = ends). [ ]: non-standard residue; d: D form. 1,3‑dibromopropan‑2‑one = linker (CAS 816-39-7) joining two Cys as 1,3-dithio-propan-2-one bridge -SCH2C(=O)CH2S-; 2Nal = N[C@@H](Cc1ccc2ccccc2c1)C(=O)O; CH2COCH2 = O=C(C[*:1])C[*:2]
In textbook form, pKi equals minus log to base ten of the concentration in mol/L.

| BINDER | MEASURED_PROPERTY | OBS_VALUE |
| --- | --- | --- |
| Ac-DESCWQCW[2Nal]LKR-NH2 (lactam 2-11; linker 4-7 via CH2COCH2) [Compound 17] | pKi | 7.15 |

Let us move to another entry and its pKi.
Inquiry: Entry H-DESCWQCWWLKR-NH2 (lactam 2-11; linker 4-7 via 1,3‑dibromopropan‑2‑one) [Compound 4] : reported pKi = ?
Reply text: 6.84
